- targetOrSystem: CDK6/cyclin D1 (Homo sapiens) (UniProt P24385+Q00534)
- protocolDescription: Inhibition of full length human recombinant N-terminal His-tagged CDK6/N-terminal GST-tagged Cyclin D1 expressed in baculovirus infected sf9 cells using RB-CTF as substrate at 100 uM incubated for 10 mins by scintillation counting method relative to control
Listed next: entries and their corresponding inhibition.
readout: inhibition (%)

{"testSmiles": "C/C(=N\\Nc1ccc2ccccc2n1)c1ccccc1O", "readoutValue": 1}
{"testSmiles": "COc1ccc(-c2nnc3c(NCCN4CCOCC4)cccn23)cc1OC", "readoutValue": 18}
{"testSmiles": "COc1ccc(/C=N/Nc2cc(C)c3ccccc3n2)cc1", "readoutValue": 42}
{"testSmiles": "Cc1cc(N/N=C/c2ccc(O)cc2)nc2ccccc12", "readoutValue": 40}
